# Protocol Text: protein stability index of a GFP-peptide fusion (GPS, HEK-293T) (PSI 1-6); higher = more stable;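 note: 24-mer peptide tiles fused after GFP, lentivirally expressed, FACS-sorted into six equal bins by GFP/DsRed ratio, decoded by Illumina sequencing, PSI is the read-weighted mean bin number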
# Condition Label: treatment: DMSO; c terminus: a fixed tail appended
Measured Metric: protein stability index
Form: value (number only, do not type unit).

seq_text="GIVGGFTQMIREGGARSLWRGNGI [SLC25A25]" val=2.22
seq_text="CHLAHELRLSCMERKKVQIRSMDP [DCAF4]" val=2.39
seq_text="EFISSTKRPYAKELETVDFKDKLE [SERPINB5]" val=3.98
seq_text="CLESTKLLADLKKCGDLECEALIN [MIA2]" val=3
seq_text="IVLNKINQILMEKYLKLQDTCRTQ [INTS3]" val=3.59

INPUT: For KKAFVWARNIGFKVNSKKMLGKYN [ACSBG2] , write its protein stability index.
OUTPUT: 2.5

INPUT: Return the recorded protein stability index value; entry: HAAASNGQINVVKHLLNLGVEIDE [ANKRD44]
OUTPUT: 4.06

INPUT: Report measured protein stability index; entry is QRNGLVFIYDMCGSNYANFELDLG [PTPN9]
OUTPUT: 2.84

INPUT: State its protein stability index: PEEPSAEDSINNSLVQLQASHQQQ [MYBL2]
OUTPUT: 5.62

INPUT: Determine its reported protein stability index: SLENTLTESEAHYSSQLSQVQSLI [KRT34]
OUTPUT: 3.32

* * *

Quick reference for protein stability index among some sequences
# Protocol Text: protein stability index of a GFP-peptide fusion (GPS, HEK-293T) (PSI 1-6); higher = more stable
# Condition Label: treatment: DMSO; c terminus: a fixed tail appended
Give only the figure.

seq_text="QRVPKVLVENAKNFPQCVLEISDQ [EFHC1]" val=3.49

INPUT: Provide protein stability index value for the following sequence: MKQRIAEENIMKSNIDKKFSAHYD [FAM50A]
OUTPUT: 3.85

INPUT: Find the measured protein stability index of EIIRKQVSATKAEAEKDGVKVPTT [UBE2R2] and report it.
OUTPUT: 4.84

INPUT: Determine its reported protein stability index: YDPNYMSPFAQFACDNGLNVRGGK [PPTC7]
OUTPUT: 3.63

INPUT: For the sequence DYIRRYLPVLRGFPAKYIYDPWNA [CRY1] , report protein stability index.
OUTPUT: 2.53

INPUT: Indicate its recorded protein stability index; the sequence in question is MEAGERIDASQLPHRVLETRGHAI [SMIM2]
OUTPUT: 4.19

INPUT: Give the reported value of protein stability index for this record: GRGGEPRAYFMSDTREEKRFLGEG [CHGB]
OUTPUT: 4.23

INPUT: Name the recorded protein stability index of the sequence listed here: TPPPSPNTQTPVQPPPPPPPPPMQ [CCDC6]
OUTPUT: 5.12

INPUT: Output measured protein stability index for this item: LQPLSKPLSSQPQAIVTEDKTDIS [MLH1]
OUTPUT: 5.31

* * *

# Protocol Text: protein stability index of a GFP-peptide fusion (GPS, HEK-293T) (PSI 1-6); higher = more stable
# Condition Label: treatment: DMSO; c terminus: a fixed tail appended
Measured Metric: protein stability index
Output: the number by itself.

Example cases with answers are listed next.
seq_text="ESSMEDCLAHLGEKVSQELKEPLH [BCL2L13]" val=4.97
seq_text="RSAMSGASQPRGPALLFPATRGVP [TRIB1]" val=3.55
seq_text="NENMAAKKKSVAMHTNYLSACSFT [GNB5]" val=3.09
seq_text="YERSFIHKIKHKHILAKNYFSQVP [IQUB]" val=2.12
seq_text="IQFATPNDFCSFYNILKTCRGHTL [CARM1]" val=2.47

INPUT: Respond only with protein stability index recorded for RGEQTTSQVSWEQDLKLFLQEPGV [FCHSD1]
OUTPUT: 4.01

INPUT: Look up and state reported protein stability index for RRERNNIAVRKSRDKAKMRNLETQ [CEBPB]
OUTPUT: 4.28
